The reported measurements were obtained from the supplement of paper PMC12494721.

Tested on: Escherichia coli IAI1
Assay: growth (OD595) fold change vs plate DMSO controls (fold change (ratio)); higher = more growth
Conditions: incubation time: 27 h, anaerobic, 37 °C
Structures can show the parent of a compound that is named as a salt.
metric name: growth
When you answer, write just the number.

compound	target system	metric name	result value
CC(=O)CCCCn1c(=O)c2c(ncn2C)n(C)c1=O [Pentoxifylline] (20 µM)	Escherichia coli IAI1	growth	0.995
CC(C)COCC(CN(Cc1ccccc1)c1ccccc1)N1CCCC1 (stereo not given) [Bepridil hydrochloride] (20 µM)	Escherichia coli IAI1	growth	0.996
CCCOC(=O)NCCCN(C)C (20 µM)	Escherichia coli IAI1	growth	0.981

Any idea what growth was measured for NS(=O)(=O)c1cc2c(cc1Cl)N=CNS2(=O)=O [Chlorothiazide] (20 µM) ?
1.06

Any idea what growth was measured for CC(C)NCC(O)c1ccc2ccccc2c1 (stereo not given) [Pronethalol hydrochloride] (20 µM) ?
1.01

====

Listed here: items and their measured fold change of Histamine concentration.
Test system: Klebsiella aerogenes DSM 30053
Assay: fold change of Histamine concentration vs plate DMSO controls (fold change (ratio)); higher = more amine produced, active = hit call of the paper (significant change in both replicates, either direction)
Details: incubation time: 27 h, anaerobic, 37 °C
When you answer, write just the number.

Below: 4 molecules and their reported fold change of Histamine concentration.
molecule	result value
N[C@@H](CCC(=O)N[C@@H](CS)C(=O)NCC(=O)O)C(=O)O [Glutathione] (20 µM)	0.965
Cc1cn[nH]c1 [Fomepizole] (20 µM)	1.03
CC(C)(CO)[C@@H](O)C(=O)NCCC(=O)NCCSSCCNC(=O)CCNC(=O)[C@H](O)C(C)(C)CO [D-Pantethine] (20 µM)	0.976
CCCOC(=O)NCCCN(C)C (20 µM)	1.06

Any idea what fold change of Histamine concentration was measured for CCN(CC)C(=O)c1cccnc1 [Nikethamide] (20 µM) ?
1.02

====

Test system: Klebsiella aerogenes DSM 30053
Experiment: fold change of Cadaverine concentration vs plate DMSO controls (fold change (ratio)); higher = more amine produced, active = hit call of the paper (significant change in both replicates, either direction)
Details: incubation time: 27 h, anaerobic, 37 °C
Structures can show the parent of a compound that is named as a salt.
metric name: fold change of Cadaverine concentration
When you answer, write just the number.

compound	target system	result value
OC[C@@H](O)[C@@H](O)[C@H](O)[C@H](O)CO [Mannitol] (50 µM)	Klebsiella aerogenes DSM 30053	0.992
CC(C(=O)O)c1ccc(N2CC=CC2)c(Cl)c1 (stereo not drawn) [Pirprofen] (20 µM)	Klebsiella aerogenes DSM 30053	0.981
CC(C)NCC(O)c1ccc(O)c(O)c1 (single isomer, unassigned; (-)) [(-) Isoproterenol hydrochloride] (20 µM)	Klebsiella aerogenes DSM 30053	1.02

Read the next record carefully.
Any idea what fold change of Cadaverine concentration was measured for Nc1nc(CC(=O)Nc2ccc(CCNC[C@H](O)c3ccccc3)cc2)cs1 [Mirabegron] (20 µM) ?
1.01

====

Tested on: Klebsiella aerogenes DSM 30053
Assay: fold change of Putrescine concentration vs plate DMSO controls (fold change (ratio)); higher = more amine produced, active = hit call of the paper (significant change in both replicates, either direction)
Conditions: incubation time: 27 h, anaerobic, 37 °C
Where a name gives a salt, the structure may show the parent alone.
Listed here: items and their measured fold change of Putrescine concentration.
When you answer, write just the number.

Below: 3 compounds and their reported fold change of Putrescine concentration.
compound	fold change of Putrescine concentration
OC[C@@H](O)[C@@H](O)CO [Erythritol] (50 µM)	0.995
N=C(N=C(N)N)N1CCOCC1 [Moroxidine hydrochloride] (20 µM)	1.06
COC1=C(OC)C(=O)C(CCCCCCCCCCO)=C(C)C1=O [Idebenone] (20 µM)	1.01

Any idea what fold change of Putrescine concentration was measured for OCCOCCN1CCN(C(c2ccccc2)c2ccc(Cl)cc2)CC1 (centres undefined) [Hydroxyzine dihydrochloride] (20 µM) ?
0.966

Any idea what fold change of Putrescine concentration was measured for COc1ccc(CN2CCN(C(c3ccc(F)cc3)c3ccc(F)cc3)CC2)c(OC)c1OC [Lomerizine dihydrochloride] (20 µM) ?
1.01
